system: ROS1; conditions: concentration: 1 μM,replicates: in singlicate; n = 1;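 note: KINOMEscan kinase panel screen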
property-name: %Inh (%)

> print(dat)
                                   compound  recorded.result
1  Cl.Cl.NC[C@H](Cc1ccc(C(F)(F)F)cc1)NC(=O)c1cc(Br)c(-c2ccnc3[nH]ccc23)s1               44
2  CNC(=O)c1ccccc1Sc1ccc2c(/C=C/c3ccccn3)n[nH]c2c1               45
3  Cl.Cl.Nc1nc(-c2ccc3c(N)n[nH]c3c2)cc(N2CCCC(NC(=O)c3ccccc3)C2)n1 (stereo not drawn)                0

###

system: PRKX; conditions: concentration: 1 μM,replicates: in singlicate; n = 1
property-name: %Inh (%)

> print(dat)
                              sample.smiles  reading.unit  recorded.result
1  CCN(CC)CCCCNc1ncc2cc(-c3c(Cl)cccc3Cl)c(NC(=O)NC(C)(C)C)nc2n1             %                0
2  Cc1cc(C(=O)Nc2ccc(Oc3ccc4nc(NC(=O)C5CC5)cn4n3)cc2)nn1-c1ccccc1             %                0
3  Cl.Cl.NC[C@H](Cc1ccc(C(F)(F)F)cc1)NC(=O)c1cc(Br)c(-c2ccnc3[nH]ccc23)s1             %               96
4  CCN(CC)CCOc1ccc(Nc2ncc3cc(-c4c(Cl)cccc4Cl)c(=O)n(C)c3n2)cc1             %                0
5  C=CC(=O)Nc1cc2c(Nc3ccc(F)c(Cl)c3)ncnc2cc1OCCCN1CCOCC1             %                0
6  CCn1c(-c2nonc2N)nc2c(C#CC(C)(C)O)nc(OCCN)cc21.Cl.Cl             %             91.6
7  O=C(NCCNc1ccnc(NCc2ccc(F)cc2)n1)c1cc2ccccc2s1             %               19

###

tested on: CDK4; conditions: concentration: 1 μM,replicates: in singlicate; n = 1
property-name: %Inh (%)

> print(dat)
                              sample.smiles  reading.unit  recorded.result
1  C[C@@H](Oc1cc(-c2cnn(C3CCNCC3)c2)cnc1N)c1c(Cl)ccc(F)c1Cl             %                0
2  Cl.Cl.NC[C@H](Cc1ccc(C(F)(F)F)cc1)NC(=O)c1cc(Br)c(-c2ccnc3[nH]ccc23)s1             %                0
3  Cc1ccc(-n2nc(C(C)(C)C)cc2NC(=O)Nc2ccc(OCCN3CCOCC3)c3ccccc23)cc1             %                0
4  C[C@@H]1CCN(C(=O)CC#N)C[C@@H]1N(C)c1ncnc2[nH]ccc12             %                0
5  O=C(NCCNc1ccnc(NCc2ccc(F)cc2)n1)c1cc2ccccc2s1             %                1

###

system: ICK; conditions: concentration: 1 μM,replicates: in singlicate; n = 1
property-name: %Inh (%)

> print(dat)
                                    molecule  property.name  recorded.result
 1  Cl.Cl.NC[C@H](CC1CCCCC1)NC(=O)c1cc(Br)c(-c2ccnc3[nH]ccc23)s1 [GSK1581427]           %Inh               24
 2  CC(C)N1C(=O)Cc2cc(Nc3ncc(C(F)(F)F)c(NCc4cccc(S(C)(=O)=O)c4)n3)ccc21           %Inh               26
 3  COc1ccc(C[C@@H](CN)NC(=O)c2cc(Br)c(-c3ccnc4[nH]ccc34)s2)cc1.Cl.Cl [GSK1389063]           %Inh               64
 4  Cc1cc(C(=O)Nc2ccc(Oc3ccc4nc(NC(=O)C5CC5)cn4n3)cc2)nn1-c1ccccc1           %Inh                0
 5  Cl.Cl.NC[C@H](Cc1ccc(C(F)(F)F)cc1)NC(=O)c1cc(Br)c(-c2ccnc3[nH]ccc23)s1 [GSK1487252]           %Inh               12
 6  Cc1n[nH]c2ccc(-c3cc(OC[C@@H](N)Cc4ccccc4)cnc3-c3ccoc3)cc12.O=C(O)C(F)(F)F.O=C(O)C(F)(F)F [GSK507358]           %Inh                0
 7  Cc1ccc2c(-c3ccncc3)c(-c3ccc(F)cc3)nn2c1.Cl [GW461484]           %Inh                0
 8  C[C@@H]1CCN(C(=O)CC#N)C[C@@H]1N(C)c1ncnc2[nH]ccc12           %Inh                0
 9  Cc1occc1-c1nc(N)c(OC[C@@H](N)Cc2c[nH]c3ccccc23)cc1-c1cc2c(C)n[nH]c2cn1 [GSK1660450]           %Inh               68
10  O=C(NCCNc1ccnc(NCc2ccc(F)cc2)n1)c1cc2ccccc2s1 [GSK1379944]           %Inh                0

###

system: TYK2(JH1domain-catalytic); details: concentration: 1 μM,replicates: in singlicate; n = 1
property-name: %Inh

> print(dat)
                              sample.smiles  property.name  recorded.result
1  C[C@@H](Oc1cc(-c2cnn(C3CCNCC3)c2)cnc1N)c1c(Cl)ccc(F)c1Cl           %Inh              84%
2   CC(C)Nc1cc(-c2ccc3c(N)n[nH]c3c2)nc(N)n1           %Inh               0%
3  O=C(NCCNc1ccnc(NCc2ccc(F)cc2)n1)c1cc2ccccc2s1           %Inh               2%

###

system: RPS6KA4(Kin.Dom.2-C-terminal); conditions: concentration: 1 μM,replicates: in singlicate; n = 1
Quick rule for you: %Inh under 5% gets MET, anything else gets NOT MET.

> print(dat)
                                   molecule  category.label
1  CN(C)CC(O)COc1ccc(Nc2nccc(-c3cnn4nc(N5CCOCC5)ccc34)n2)cc1 (centres unmarked)         NOT MET
2  CCN(CC)CCCCNc1ncc2cc(-c3c(Cl)cccc3Cl)c(NC(=O)NC(C)(C)C)nc2n1         NOT MET
3  CCn1c(-c2nonc2N)nc2c(C#CC(C)(C)O)nc(OCCN)cc21.Cl.Cl         NOT MET
4  Cl.Cl.Nc1nc(-c2ccc3c(N)n[nH]c3c2)cc(N2CCCC(NC(=O)c3ccccc3)C2)n1 (centres unmarked)             MET

###

test system: MAPKAPK2; conditions: concentration: 1 μM,replicates: in singlicate; n = 1
property-name: %Inh

> print(dat)
                              sample.smiles  property.name  recorded.result
1  Cl.Oc1cc(-c2nc(-c3ccccc3)[nH]c2-c2ccncc2)ccc1Cl           %Inh              28%
2  NC(=O)c1cc(-c2ccccc2)cc2c(C3CCNCC3)c[nH]c12           %Inh               1%
3  CC(C)N1C(=O)Cc2cc(Nc3ncc(C(F)(F)F)c(NCc4cccc(S(C)(=O)=O)c4)n3)ccc21           %Inh               0%

###

Below, each entry is listed alongside its reported %Inh.
test system: NDR1; construct: gene STK38; conditions: concentration: 1 μM,replicates: in singlicate; n = 1
property-name: %Inh (%)

> print(dat)
                                   compound  target.or.system  reading.unit  recorded.result
1  C[C@H]1Oc2cc(cnc2N)-c2c(nn(C)c2C#N)CN(C)C(=O)c2ccc(F)cc21              NDR1             %               31
2  CC(C)Nc1cc(-c2ccc3c(N)n[nH]c3c2)nc(N)n1 [GSK2221681]              NDR1             %               10
3  Cl.Cl.NC[C@H](Cc1ccc(C(F)(F)F)cc1)NC(=O)c1cc(Br)c(-c2ccnc3[nH]ccc23)s1 [GSK1487252]              NDR1             %             93.3
4  NC(=O)c1cc(-c2ccccc2)cc2c(C3CCNCC3)c[nH]c12 [GSK301362]              NDR1             %                0
5  Nc1nc(Nc2ccccc2)cc(-c2ccc3c(N)n[nH]c3c2)n1 [GSK2225749]              NDR1             %                0
6  Cl.Oc1cc(-c2nc(-c3ccccc3)[nH]c2-c2ccncc2)ccc1Cl [SB-386023]              NDR1             %               10
